Quick list: inhibition per entry.
target.or.test.system: UniProtKB P41597
method.notes: Displacement of [125I]MCP1 from human CCR2 expressed in CHO cells at 1 uM
Format: cell-based
readout: inhibition (%)

>>> observed_measurement("CC(=O)N(Cc1cc(C(F)(F)F)cc(C(F)(F)F)c1)C[C@@H](NCCN(C)C)c1ccccc1")
4
>>> observed_measurement("CN(C)CCN[C@H](CNC(=O)c1cc(C(F)(F)F)cc(C(F)(F)F)c1)c1ccccc1")
0
>>> observed_measurement("CC(C)CCNC(C(=O)NCc1cc(C(F)(F)F)cc(C(F)(F)F)c1)c1ccccc1 (stereo not given)")
0
>>> observed_measurement("CN(C)CCN[C@H](C(=O)NCc1ccccc1C(F)(F)F)c1ccccc1")
1
>>> observed_measurement("CN(C)CCN[C@H](CNS(=O)(=O)c1cc(C(F)(F)F)cc(C(F)(F)F)c1)c1ccccc1")
0

---

Tested on: Monocyte
method.notes: Inhibition of MCP1-induced chemotaxis of human monocytes
Assay type: functional, cell-based
pIC50: −log10 of the molar value.
readout: pIC50

>>> observed_measurement("Cc1ccc2c(c1)C1(CCN(CCc3coc(-c4ccc(F)cc4)n3)CC1)OC(=O)N2")
6.00
>>> observed_measurement("O=C(O)c1cc2cc(O)ccc2n1Cc1ccc(Cl)c(Cl)c1")
7.22
>>> observed_measurement("O=C(NC(=O)c1ccc2nccnc2c1)Nc1cccc(-c2ccccc2)c1")
7.22
>>> observed_measurement("O=C(NCc1cc(C(F)(F)F)cc(C(F)(F)F)c1)[C@@H](NCCN1CCCCC1)c1ccsc1")
8.02

---

target.or.test.system: C-C chemokine receptor type 2 (Homo sapiens)
Sequence (P41597 whole entry, looked up): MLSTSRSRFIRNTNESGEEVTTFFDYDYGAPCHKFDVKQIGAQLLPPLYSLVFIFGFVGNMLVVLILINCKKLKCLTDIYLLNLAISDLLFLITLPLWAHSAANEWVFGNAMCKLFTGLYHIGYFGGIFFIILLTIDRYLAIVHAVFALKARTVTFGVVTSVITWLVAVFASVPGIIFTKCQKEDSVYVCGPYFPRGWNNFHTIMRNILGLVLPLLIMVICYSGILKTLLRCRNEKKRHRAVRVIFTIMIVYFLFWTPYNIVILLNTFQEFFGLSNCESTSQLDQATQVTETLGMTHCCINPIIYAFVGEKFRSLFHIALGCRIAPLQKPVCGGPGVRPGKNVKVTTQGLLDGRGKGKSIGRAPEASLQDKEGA
method.notes: Displacement of [125I]MCP1 from human CCR2 expressed in CHO cells at 1 uM
Assay type: cell-based
readout: inhibition

>>> observed_measurement("Cc1cc(C)cc(CNC(=O)[C@@H](NCCN(C)C)c2ccccc2)c1")
"0%"
>>> observed_measurement("NCCNC(C(=O)NCc1cc(C(F)(F)F)cc(C(F)(F)F)c1)c1ccccc1 (centres undefined)")
"14%"
>>> observed_measurement("CN(C)CCN[C@H](C(=O)NCc1cc(C(F)(F)F)cc(C(F)(F)F)c1)C1CCCCC1")
"9%"
>>> observed_measurement("COc1ccc([C@H](NCCN(C)C)C(=O)NCc2cc(C(F)(F)F)cc(C(F)(F)F)c2)cc1")
"47%"
>>> observed_measurement("O=C(NCc1cc(C(F)(F)F)cc(C(F)(F)F)c1)[C@@H](NCCCN1CCCCC1)c1ccccc1")
"26%"
>>> observed_measurement("CN(C)CCN[C@@H](Cc1ccc(F)cc1)C(=O)NCc1cc(C(F)(F)F)cc(C(F)(F)F)c1")
"1%"
>>> observed_measurement("CN(C)CCN[C@H](C(=O)NCc1cccc(C(F)(F)F)c1)c1ccccc1")
"5%"
>>> observed_measurement("CN(C)CCN[C@H](CN(Cc1cc(C(F)(F)F)cc(C(F)(F)F)c1)S(C)(=O)=O)c1ccccc1")
"0%"
>>> observed_measurement("CC(NC(=O)[C@@H](NCCN(C)C)c1ccccc1)c1cc(C(F)(F)F)cc(C(F)(F)F)c1 (some centres undefined)")
"28%"
>>> observed_measurement("COCCNC(C(=O)NCc1cc(C(F)(F)F)cc(C(F)(F)F)c1)c1ccccc1 (centres undefined)")
"0%"
>>> observed_measurement("CN(C)CCNC(C(=O)NCc1cc(C(F)(F)F)cc(C(F)(F)F)c1)c1cccc(Br)c1 (centres undefined)")
"17%"
>>> observed_measurement("CN(C)CCN[C@H](COCc1cc(C(F)(F)F)cc(C(F)(F)F)c1)c1ccccc1")
"6%"
>>> observed_measurement("CN(C)CCN[C@H](C(=O)N(C)Cc1cc(C(F)(F)F)cc(C(F)(F)F)c1)c1ccccc1")
"20%"
>>> observed_measurement("CN(C)CCNC(C(=O)NCc1cc(C(F)(F)F)cc(C(F)(F)F)c1)c1ccc(F)c(F)c1 (centres undefined)")
"33%"
>>> observed_measurement("CN(C)CCN[C@H](C(=O)NCc1ccc(C(F)(F)F)cc1)c1ccccc1")
"7%"
>>> observed_measurement("CN(C)CCN[C@@H](C(=O)NCc1cc(C(F)(F)F)cc(C(F)(F)F)c1)c1ccc(F)cc1")
"8%"
>>> observed_measurement("CN(C)CCNCC(=O)NCc1cc(C(F)(F)F)cc(C(F)(F)F)c1")
"0%"
>>> observed_measurement("CN(C)CCNC(C(=O)NCc1cc(C(F)(F)F)cc(C(F)(F)F)c1)c1ccc(Br)cc1 (centres undefined)")
"25%"
>>> observed_measurement("CN(C)CCN[C@H](CN(C)S(=O)(=O)c1cc(C(F)(F)F)cc(C(F)(F)F)c1)c1ccccc1")
"0%"
